B1: FCHO1 (parent)
chain: FSDPSQSDPETKDFWLNMAALTEA

variants of: B1; experiment: protein stability index of a GFP-peptide fusion (GPS, HEK-293T) (PSI 1-6); higher = more stable; settings: c terminus: a fixed tail appended;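 also: lentivirally expressed fusions sorted by FACS into six bins by GFP to DsRed ratio, PSI derived from sequencing read proportions per bin multiplied by bin number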
List of protein stability index values.
assay-readout: protein stability index

- FWDPSQSDPETKDFWLNMAALTEA [S2W]: 2.93
- FSDPSQSDPETKDFWLNMAALMEA [T22M]: 3.02
- FPDPSQSDPETKDFWLNMAALTEA [S2P]: 3.02
